Measured Target: Thyrotropin receptor (Homo sapiens) (UniProt P16473)
Sequence (P16473 whole entry, looked up): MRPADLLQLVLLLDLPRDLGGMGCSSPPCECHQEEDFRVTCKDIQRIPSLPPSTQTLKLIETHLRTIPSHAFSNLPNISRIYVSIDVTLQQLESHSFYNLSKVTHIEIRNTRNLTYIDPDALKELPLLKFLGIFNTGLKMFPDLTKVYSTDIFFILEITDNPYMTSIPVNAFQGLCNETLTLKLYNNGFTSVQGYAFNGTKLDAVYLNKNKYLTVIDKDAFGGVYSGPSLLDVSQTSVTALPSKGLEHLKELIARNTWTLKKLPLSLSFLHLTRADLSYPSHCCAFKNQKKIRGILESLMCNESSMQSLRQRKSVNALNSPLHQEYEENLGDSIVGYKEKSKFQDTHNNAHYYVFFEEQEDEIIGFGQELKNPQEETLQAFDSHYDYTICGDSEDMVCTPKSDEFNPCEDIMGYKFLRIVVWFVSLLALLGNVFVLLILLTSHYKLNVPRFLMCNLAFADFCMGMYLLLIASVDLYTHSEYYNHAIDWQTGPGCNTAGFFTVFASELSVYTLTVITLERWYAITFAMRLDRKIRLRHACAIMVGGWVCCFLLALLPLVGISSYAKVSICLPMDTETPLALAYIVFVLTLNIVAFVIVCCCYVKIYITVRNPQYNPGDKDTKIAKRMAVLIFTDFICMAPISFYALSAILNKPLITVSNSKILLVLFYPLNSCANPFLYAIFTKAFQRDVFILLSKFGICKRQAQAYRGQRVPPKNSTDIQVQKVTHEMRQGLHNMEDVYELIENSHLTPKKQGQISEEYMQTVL
Protocol Summary: qHTS assay to identify small molecule antagonists of the thyroid stimulating hormone receptor (TSHR) signaling pathway (AID 1259385); note: nearly all actives have a fitted effect of over 20% in size
Protocol Conditions: TSHR-HEK293 cAMP HTRF, TSH-stimulated antagonist mode; series mostly up to 92.4 µM
Records with an inconclusive call do not appear. Activity calls are given as the source filed them. Calls come from the whole dose curve.
Readout Name: outcome

[[record]]
smiles_notation = "CCc1oc2ccccc2c1C(=O)c1cc(Br)c(O)c(Br)c1"
reported_value = "inactive"

[[record]]
smiles_notation = "O=c1[nH]cnc2nc[nH]c12"
reported_value = "inactive"

[[record]]
smiles_notation = "NC(=O)CC[C@@H]1NC(=O)[C@H](Cc2ccccc2)NC(=O)[C@H](Cc2ccc(O)cc2)NC(=O)CCSSC[C@@H](C(=O)N2CCC[C@H]2C(=O)N[C@@H](CCCN=C(N)N)C(=O)NCC(N)=O)NC(=O)[C@H](CC(N)=O)NC1=O"
reported_value = "inactive"

[[record]]
smiles_notation = "OCCCCCCCCCCCCBr"
reported_value = "inactive"

[[record]]
smiles_notation = "O=c1cc(-c2ccc(O)cc2)oc2cc(O)cc(O)c12"
reported_value = "inactive"


## Task Look up and report outcome, with Thyrotropin receptor (Homo sapiens) (UniProt P16473) as system, for Fc1ccc(C(c2ccc(F)cc2)N2CCN(C/C=C/c3ccccc3)CC2)cc1
## Result inactive

* * *

Protocol Summary: Caspase-3/7 induction in HepG2 cells by small molecules, qHTS cell viability counter screen (AID 1346981); note: nearly all actives have a fitted effect of over 30% in size
Protocol Conditions: CellTiter-Fluor fluorescence, 17 h; series mostly up to 92.4 µM
Inconclusive results are not listed. Activity calls are given as the source filed them. Calls come from the whole dose curve; as a rule, active = well fitted cell-killing curve with a large enough effect in the repeat runs; inconclusive = weak or mixed curves, or effect the other way; inactive = flat fitted curve, though single readings scatter.
Select the matching outcome among y (active), n (inactive)

Examples from the recorded data:
[[record]]
smiles_notation = "NNc1nc(-c2ccc([N+](=O)[O-])cc2)cs1"
cat = "y"

[[record]]
smiles_notation = "CSc1ccc(C(=O)c2[nH]c(=O)[nH]c2C)cc1"
cat = "n"

[[record]]
smiles_notation = "C[C@H](CCC(=O)O)[C@H]1CC[C@H]2[C@@H]3CC[C@@H]4C[C@H](O)CC[C@]4(C)[C@H]3CC[C@]12C"
cat = "y"

[[record]]
smiles_notation = "NC(=O)CC[C@@H]1NC(=O)[C@H](Cc2ccccc2)NC(=O)[C@H](Cc2ccc(O)cc2)NC(=O)CCSSC[C@@H](C(=O)N2CCC[C@H]2C(=O)N[C@@H](CCCN=C(N)N)C(=O)NCC(N)=O)NC(=O)[C@H](CC(N)=O)NC1=O"
cat = "n"

[[record]]
smiles_notation = "Clc1ccc2nsnc2c1NC1=NCCN1"
cat = "n"

[[record]]
smiles_notation = "On1ccccc1=S"
cat = "y"

[[record]]
smiles_notation = "O=c1cccccc1O"
cat = "n"

[[record]]
smiles_notation = "C[C@]12CCC(=O)C=C1CC[C@@H]1[C@@H]2[C@@H](O)C[C@@]2(C)[C@H]1CC[C@]2(O)C(=O)COC(=O)CCC(=O)O"
cat = "n"

[[record]]
smiles_notation = "CCCCCCCCCCCCCCCS(=O)(=O)Oc1ccccc1"
cat = "n"

[[record]]
smiles_notation = "O=C(OC[C@H]1O[C@@H](OC(=O)c2cc(O)c(O)c(OC(=O)c3cc(O)c(O)c(O)c3)c2)[C@H](OC(=O)c2cc(O)c(O)c(OC(=O)c3cc(O)c(O)c(O)c3)c2)[C@@H](OC(=O)c2cc(O)c(O)c(OC(=O)c3cc(O)c(O)c(O)c3)c2)[C@@H]1OC(=O)c1cc(O)c(O)c(OC(=O)c2cc(O)c(O)c(O)c2)c1)c1cc(O)c(O)c(OC(=O)c2cc(O)c(O)c(O)c2)c1"
cat = "y"


## Task Returns: the outcome recorded for Nc1c(Cl)cc(Cl)cc1Cl in this assay.
## Result n
